Attribute: Ki
biological target: Urokinase (Abbokinase) (Homo sapiens, UniProt P00749)

# Molecule, Tested Target, Ki
data = [
    ("CCCCS(=O)(=O)N[C@H](CO)C(=O)N[C@@H](C)C(=O)NCc1ccc(C(=N)N)cc1 [A]", "Urokinase (Abbokinase) (Homo sapiens, UniProt P00749)", "< 100 nM"),
    ("N=C(N)c1ccc(CNC(=O)[C@@H]2C=CCN2C(=O)[C@@H](CO)NS(=O)(=O)Cc2ccccc2)cc1 [K]", "Urokinase (Abbokinase) (Homo sapiens, UniProt P00749)", "< 100 nM"),
]

Report Ki for C[C@H](NC(=O)[C@@H](CO)NS(=O)(=O)Cc1ccccc1)C(=O)NCc1ccc(NC(=N)N)s1 [AW] please. 250 to 2500 nM

Repeat with C[C@H](NC(=O)[C@@H](CO)NS(=O)(=O)Cc1ccccc1)C(=O)NCc1ccc(C(=N)N)s1 [AH] < 100 nM

Same question, C[C@H](NC(=O)[C@@H](CO)NS(=O)(=O)Cc1ccccc1)C(=O)NCc1ccc(C(=N)N)cn1 [AO] this time 100 to 250 nM
